Test system: Hepatitis B virus
method_summary: Inhibition of HBV antigen secretion in HepG2.2.15 cells
Format: functional, organism-based
metric: pIC50
One number for each entry, as −log10 of the molar value.

Prompt: Recorded pIC50 for CCOC(=O)c1cc2cc(OC)c(O)c(CN3C=NCC3)c2nc1C[S+]([O-])c1ccc(F)c(F)c1 (stereo unspecified) , please?
Completion: 4.85

---

System: Hepatitis B virus
method_summary: Inhibition of HBV antigen secretion
Assay type: functional, organism-based
metric: pEC50
Answers are plain numbers, as −log10 of the molar value.

Prompt: Lab request: please report pEC50 under test system Hepatitis B virus for Clc1cc2nc(N3CCN(c4ccccn4)CC3)[nH]c2cc1Cl
Completion: 5.82
